These data points were gathered from ChEMBL document CHEMBL1157562.

- target: P2Y purinoceptor 12 (Homo sapiens)
- Sequence (Q9H244 whole entry): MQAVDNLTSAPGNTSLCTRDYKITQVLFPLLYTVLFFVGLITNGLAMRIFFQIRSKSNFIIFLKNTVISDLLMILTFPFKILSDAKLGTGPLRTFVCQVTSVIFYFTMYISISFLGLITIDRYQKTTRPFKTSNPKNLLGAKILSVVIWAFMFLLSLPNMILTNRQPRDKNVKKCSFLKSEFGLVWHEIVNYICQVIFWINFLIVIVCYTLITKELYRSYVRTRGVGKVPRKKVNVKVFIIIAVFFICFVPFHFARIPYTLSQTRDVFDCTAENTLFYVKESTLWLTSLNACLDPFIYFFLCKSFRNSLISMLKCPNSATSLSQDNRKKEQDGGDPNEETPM
- measurement_protocol: Displacement of [33P]ADP from human recombinant P2Y12 receptor expressed in CHO cells
Listed here are compounds together with their documented Ki.
Hi! Could you send only the number? It should be in nM, unit omitted.

These recorded examples may help you get a feel for the data.
CCCCCCOC(=O)N1CCN(C(=O)[C@H](CCC(=O)O)NC(=O)c2cc(OCCCC)cc(-c3ccccc3)n2)CC1 ... 89
CCOC(=O)N1CCN(C(=O)[C@H](CCC(=O)O)NC(=O)c2cc(NCCO)cc(-c3ccccc3)n2)CC1 ... 117
CCOC(=O)N1CCN(C(=O)[C@H](CCC(=O)O)NC(=O)c2cc(-c3ccccc3)cc(-c3ccccc3)c2)CC1 ... 373

[in] // lookup Ki for "CCOC(=O)N1CCN(C(=O)CNC(=O)c2cccc(-c3ccccc3)n2)CC1"
[out] 1610

[in] Now the compound "CCCCOC(=O)N1CCN(C(=O)[C@H](CCC(=O)O)NC(=O)c2cc(OC3CCN(CCOC)CC3)cc(-c3ccccc3)n2)CC1"
[out] 9.4

[in] Now the compound "CCCCOC(=O)N1CCN(C(=O)[C@H](CCC(=O)O)NC(=O)c2cc(N3CCOCC3)cc(-c3ccccc3)n2)CC1"
[out] 3.3

[in] Now the compound "CCOC(=O)N1CCN(C(=O)[C@H](CCC(=O)O)NC(=O)c2cc(OCC)cc(-c3ccccc3)n2)CC1"
[out] 94

[in] Now the compound "CCCCCOC(=O)N1CCN(C(=O)[C@H](CCC(=O)O)NC(=O)c2cc(NC(=O)NCC3CCNCC3)cc(-c3ccccc3)n2)CC1"
[out] 1.4

[in] Now the compound "CCCCOC(=O)N1CCN(C(=O)[C@H](CCC(=O)O)NC(=O)c2cc(O)cc(-c3ccccc3)n2)CC1"
[out] 31

[in] Now the compound "CCCCOC(=O)N1CCN(C(=O)[C@H](CCC(=O)O)NC(=O)c2cc(N3CCC(NC)CC3)cc(-c3ccccc3)n2)CC1"
[out] 2.7

[in] Now the compound "CCOC(=O)N1CCN(C(=O)[C@H](CCC(=O)O)NC(=O)c2cccc(-c3ccccc3)c2)CC1"
[out] 3640

[in] Now the compound "CCCCCOC(=O)N1CCN(C(=O)[C@H](CCC(=O)O)NC(=O)c2cc(C(=O)N(C)CCCOC)cc(-c3ccccc3)n2)CC1"
[out] 2.6

[in] Now the compound "CCCCOC(=O)N1CCN(C(=O)[C@H](CCC(=O)O)NC(=O)c2cc(N3CCC(N4CCCC4)CC3)cc(-c3ccccc3)n2)CC1"
[out] 64

[in] Now the compound "CCCCCOC(=O)N1CCN(C(=O)[C@H](CCC(=O)O)NC(=O)c2cc(CCCN(C)C)cc(-c3ccccc3)n2)CC1"
[out] 1
